The measurements presented in this section are drawn from a melting point compilation (Tetko et al.; mined from patent text by program, amines drawn as free bases though some values may be those of a salt).

Reported melting point values are given for each entry in this list.

Examples from the recorded data:
CCc1noc(-c2cn(-c3ccc(OC)cc3)cn2)n1 = 147 to 148 °C
O=c1[nH]cnc2c1cnn2CC(O)c1ccccc1 (stereo not given) = 270 to 271 °C
CS(=O)(=O)c1ccc(-c2nc3cc(C4=CCN(S(=O)(=O)CCCO)CC4)ccc3o2)c(F)c1 = 184 to 186 °C
CCOC(=O)c1c(C)n(C(=O)c2ccccc2)c2ccc(Oc3nc(OC)cc(OC)n3)c(C(=O)O)c12 = 113 to 115 °C

Here is the next item to consider.
[Q] Return reported melting point. Input molecule: `N#Cc1cnn2c(-c3cccc(C(F)(F)F)c3)ccnc12`
[A] 141 to 142 °C

* * *

Reported melting point values are given for each entry in this list.

CCOC(=O)c1c(O)c2cc(F)ccc2n(Cc2ccccc2)c1=O = 129 °C
COc1ccc2[nH]c(S(=O)Cc3cc(N4CCCCC4)ncn3)nc2c1 (configuration not stated) = 98 to 101 °C
O=C(c1ccc(Nc2ccnc3cc(C(F)(F)F)ccc23)cc1)N1CCN(c2c(Cl)c(Cl)nc(Cl)c2Cl)CC1 = 222 to 224 °C
O=C(O)c1cn(C2CC2)c2cc(N3CCC3)c(F)cc2c1=O = 291 to 294 °C
CN(C)C=C1C(=O)N(C)C(=O)N1c1cccc(C(F)(F)F)c1 = 103 to 104 °C

[Q] Return reported melting point. Input molecule: `COC(=O)C1=Cc2cc(-c3ccc(N4CCOCC4)cc3)ccc2S(=O)(=O)CC1`
[A] 215 to 217 °C

[Q] Return reported melting point. Input molecule: `Fc1ccc(-c2n[nH]cc2-c2ccnc(Nc3ccccc3F)n2)cc1`
[A] 239 to 240 °C

* * *

PARAMETER_MEASURED: melting point

Examples from the recorded data:
COc1cccc2cc(C(=O)c3ccc(Cl)c(S(N)(=O)=O)c3)oc12 = 167 to 171 °C
COc1cc2ncnc(Nc3cccc(O)c3)c2cc1OC = 256 to 257 °C
CCOC(=O)c1nnn(Cc2ccccc2)c1N = 153 °C

[Q] Return reported melting point. Input molecule: `CCC(=O)Oc1cccc2c1C(=O)c1c(OC(=O)CC)cc(-c3nnn[nH]3)cc1C2=O`
[A] 176 to 178 °C

[Q] Return reported melting point. Input molecule: `C#CC[C@H](c1nc2cccnc2c(=O)n1Nc1ccccc1)N(CCCNC(=O)OCc1ccccc1)C(=O)c1cccc(Cl)c1F`
[A] 100 to 102 °C

[Q] Return reported melting point. Input molecule: `CC(=O)n1ccc2c(C=O)ccc(OCc3ccccc3)c21`
[A] 77 to 78 °C

[Q] Return reported melting point. Input molecule: O=C1CN2CCOC2(c2ccccc2F)c2cc(I)ccc2N1CCO (stereo not given)
[A] 160 to 165 °C

[Q] Return reported melting point. Input molecule: `O=c1cc(Sc2ccccc2)cc[nH]1`
[A] 202 °C

[Q] Return reported melting point. Input molecule: `Cc1ccc(/C=C/C2=CCN(Cc3ccc(Cl)cc3)CC2)cc1`
[A] 122 to 124 °C

[Q] Return reported melting point. Input molecule: O=C(O)c1cccc(CC2COc3ccc(OCc4nc5cc(F)ccc5s4)cc3C2O)c1 (stereo not given)
[A] 208 to 210 °C

* * *

PARAMETER_MEASURED: melting point

[Q] Return reported melting point. Input compound: CCOC1CCC2C3CCC4=CC(=O)CCC4=C3C(c3ccc(C=O)cc3)CC12C (stereo not given)
[A] 149 to 152 °C

[Q] Return reported melting point. Input compound: CCC(OC)(c1cccc(O)c1)c1nccs1 (stereo not given)
[A] 101 to 103 °C
